Where do these numbers come from? They come from ChEMBL document CHEMBL1153554.

Biological target: Human immunodeficiency virus type 1 reverse transcriptase (Human immunodeficiency virus 1, UniProt Q72547, L210W/M184V/M41L/T215Y)
Experiment: Binding affinity to HIV1 LAI reverse transcriptase M41L/L210W/T215Y/M184V mutant assessed as ATP-mediated excision of zidovudine-monophosphate terminated DNA/DNA template/primer duplex chain at 100 uM by gel shift mobility assay
Experimental Endpoint: Kd (nM)

Cc1cn([C@H]2C[C@H](N=[N+]=[N-])[C@@H](COP(=O)(O)O)O2)c(=O)[nH]c1=O [AZIDOTHYMIDINE MONOPHOSPHATE]; 98.4

###

Biological target: Human immunodeficiency virus type 1 reverse transcriptase (Human immunodeficiency virus 1, UniProt Q72547, L210W/M41L/T215Y)
Assay: Binding affinity to HIV1 LAI reverse transcriptase M41L/L210W/T215Y mutant
Experimental Endpoint: Kd (nM)

Nc1ccn([C@H]2C[C@H](O)[C@@H](COP(=O)(O)OP(=O)(O)OP(=O)(O)O)O2)c(=O)n1 [DEOXYCYTIDINE TRIPHOSPHATE]; 1230
Nc1ccn([C@@H]2CS[C@H](COP(=O)(O)OP(=O)(O)OP(=O)(O)O)O2)c(=O)n1 [LAMIVUDINE TRIPHOSPHATE]; 430
Cc1cn([C@H]2C[C@H](N=[N+]=[N-])[C@@H](CO[P@](=O)(O)O[P@](=O)(O)OP(=O)(O)O)O2)c(=O)[nH]c1=O [ZIDOVUDINE TRIPHOSPHATE]; 1150
